biological target: c-IAP1 (Homo sapiens); construct: GST (N); made in house; host or cells: E. coli DH5α; assay: Fluorescence polarization-based competition assay, c-IAP1; assay type: binding; conditions: FP assay, ki derived from IC50
Sequence (Q13490 251-363): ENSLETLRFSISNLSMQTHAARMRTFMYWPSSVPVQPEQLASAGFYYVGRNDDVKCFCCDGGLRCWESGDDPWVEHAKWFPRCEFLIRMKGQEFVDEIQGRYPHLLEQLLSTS
RECORDED ENDPOINT: Ki

Example entries begin here.
{"MOLECULE": "CN[C@@H](C)C(=O)N[C@H](C(=O)N1CCC[C@H]1CN(CCc1ccc(F)cc1)C(=O)c1cn2c(n1)CCC2)C(C)(C)C [Compound 67]", "TARGET OR TEST SYSTEM": "c-IAP1 (Homo sapiens)", "VALUE REPORTED": "< 25 nM"}
{"MOLECULE": "CN[C@@H](C)C(=O)N[C@H](C(=O)N1CCC[C@H]1CN(CCc1ccc(F)cc1)C(=O)c1cn(-c2ccccc2)cn1)C(C)(C)C [Compound 61]", "TARGET OR TEST SYSTEM": "c-IAP1 (Homo sapiens)", "VALUE REPORTED": "< 25 nM"}

Let us move to another entry and its Ki.
Provide one value: measured Ki of CN[C@@H](C)C(=O)N[C@H](C(=O)N1CCC[C@H]1CN(CCc1ccc(F)cc1)C(=O)c1cn2cc(F)cnc2n1)C(C)(C)C [Compound 63]
< 25 nM

* * *

List of Ki tested on UniProt P98170.

{"SMILES REPRESENTATION": "CN[C@@H](C)C(=O)N[C@H](C(=O)N1CCC[C@H]1CN(CCc1ccc(F)cc1)C(=O)c1cnn(-c2ccccc2)c1)C(C)(C)C", "VALUE REPORTED": "< 250 nM"}
{"SMILES REPRESENTATION": "CN[C@@H](C)C(=O)N[C@H](C(=O)N1CCC[C@H]1CN(CCc1ccc(F)cc1)C(=O)c1cc2ccccn2c1)C(C)(C)C", "VALUE REPORTED": "< 250 nM"}
{"SMILES REPRESENTATION": "CN[C@@H](C)C(=O)N[C@H](C(=O)N1C[C@@H](Oc2ccc(F)cc2)C[C@H]1CN(CCc1ccc(F)cc1)C(=O)c1cn2ccccc2n1)C(C)(C)C", "VALUE REPORTED": "< 25 nM"}
{"SMILES REPRESENTATION": "CCO[C@H](C)[C@H](NC(=O)[C@H](C)NC)C(=O)N1CCC[C@H]1CN(CCc1ccc(F)cc1)C(=O)c1cn(-c2ccc(F)cc2)cn1", "VALUE REPORTED": "< 250 nM"}
{"SMILES REPRESENTATION": "CN[C@@H](C)C(=O)N[C@H](C(=O)N1CCC[C@H]1CN(CCc1ccc(F)cc1)C(=O)c1ccn(-c2ccccc2)c1)C(C)(C)C", "VALUE REPORTED": "< 250 nM"}
{"SMILES REPRESENTATION": "CN[C@@H](C)C(=O)N[C@H](C(=O)N1C[C@@H](Oc2ccc(F)cc2)C[C@H]1CN(CCc1ccc(F)cc1)C(=O)c1cn2c(n1)CCC2)C(C)(C)C", "VALUE REPORTED": "< 25 nM"}

I have 2 compounds here; please give me Ki for each one.
1. CN[C@@H](C)C(=O)N[C@H](C(=O)N1C[C@@H](Oc2ccc(F)cc2)C[C@H]1CN(CCc1ccc(F)cc1)C(=O)c1cn2cc(F)cnc2n1)C(C)(C)C
2. CN[C@@H](C)C(=O)N[C@H](C(=O)N1CCC[C@H]1CN(CCc1ccc(F)cc1)C(=O)c1cn(C)cn1)C1CCCCC1

1. < 25 nM
2. < 250 nM

* * *

List of pKi tested on XIAP (Homo sapiens, UniProt P98170).
Sequence (P98170 246-497 limits assumed): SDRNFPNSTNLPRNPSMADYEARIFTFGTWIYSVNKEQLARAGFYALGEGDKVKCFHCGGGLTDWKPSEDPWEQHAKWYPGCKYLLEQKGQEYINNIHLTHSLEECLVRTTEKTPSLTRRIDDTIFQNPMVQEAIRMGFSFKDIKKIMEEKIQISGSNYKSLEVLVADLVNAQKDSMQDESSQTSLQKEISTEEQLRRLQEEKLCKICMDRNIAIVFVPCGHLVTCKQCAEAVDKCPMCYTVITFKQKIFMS
pKi: −log10 of the molar value.

Example entries begin here.
{"SMILES REPRESENTATION": "CN[C@@H](C)C(=O)N[C@H](C(=O)N1C[C@@H](Oc2ccccc2)C[C@H]1CN(CCc1ccc(F)cc1)C(=O)c1cn2cccnc2n1)C(C)(C)C", "pKi": "> 6.60"}
{"SMILES REPRESENTATION": "CC[C@H](NC)C(=O)N[C@H](C(=O)N1CCC[C@H]1CN(CCc1ccccc1)C(=O)c1cn2cccnc2n1)C1CCCCC1", "pKi": "> 6.00"}
{"SMILES REPRESENTATION": "CN[C@@H](C)C(=O)N[C@H](C(=O)N1CCC[C@H]1CN(CCc1ccccc1)C(=O)c1cn(C)c2ccccc12)C(C)(C)C", "pKi": "> 6.60"}
{"SMILES REPRESENTATION": "CN[C@@H](C)C(=O)N[C@H](C(=O)N1CCC[C@H]1CN(CCc1ccc(F)cc1)C(=O)c1cn(C(C)C)cn1)C(C)(C)C", "pKi": "> 6.60"}
{"SMILES REPRESENTATION": "CN[C@@H](C)C(=O)N[C@H](C(=O)N1CCC[C@H]1CN(CCc1ccc(F)cc1)C(=O)c1cn2c(n1)CCC2)C(C)(C)C", "pKi": "> 6.60"}
{"SMILES REPRESENTATION": "CN[C@@H](C)C(=O)N[C@H](C(=O)N1C[C@@H](Oc2ccncc2)C[C@H]1CN(CCc1ccc(F)cc1)C(=O)c1cn2ccccc2n1)C(C)(C)C", "pKi": "> 6.60"}
{"SMILES REPRESENTATION": "CN[C@@H](C)C(=O)N[C@H](C(=O)N1CCC[C@H]1CN(CCc1ccc(F)cc1)C(=O)c1cn2cc(OC)ccc2n1)C(C)(C)C", "pKi": "> 6.60"}
{"SMILES REPRESENTATION": "CN[C@@H](C)C(=O)N[C@H](C(=O)N1CCC[C@H]1CN(CCc1ccc(F)cc1)C(=O)c1cn(-c2ccc(OC)cc2)cn1)C(C)(C)C", "pKi": "> 6.60"}

I have 4 compounds here; please give me pKi for each one.
1. CN[C@@H](C)C(=O)N[C@H](C(=O)N1CCC[C@H]1CN(CCc1ccccc1)C(=O)c1cc2ccccc2n1C)C(C)(C)C
2. CCN[C@@H](C)C(=O)N[C@H](C(=O)N1CCC[C@H]1CN(CCc1ccccc1)C(=O)c1cn2cccnc2n1)C(C)(C)C
3. CN[C@@H](C)C(=O)N[C@H](C(=O)N1CCC[C@H]1CN(CCc1ccc(F)cc1)C(=O)c1cn2cc(F)cnc2n1)C(C)(C)C
4. CCO[C@H](C)[C@H](NC(=O)[C@H](C)NC)C(=O)N1CCC[C@H]1CN(CCc1ccc(F)cc1)C(=O)c1cn2c(n1)CCC2

1: > 6.60; 2: > 6.00; 3: > 6.60; 4: > 6.60

* * *

Would you kindly list pKi for each of these compounds?
biological target: XIAP (Homo sapiens, UniProt P98170)
pKi: −log10 of the molar value.

Example entries begin here.
{"COMPOUND": "CC[C@H](N)C(=O)N[C@H](C(=O)N1CCC[C@H]1CN(CCc1ccccc1)C(=O)c1cn2ccccc2n1)C1CCCCC1 [Compound 29]", "pKi": "> 6.00"}
{"COMPOUND": "CN[C@@H](C)C(=O)N[C@H](C(=O)N1CCC[C@H]1CN(CCc1ccc(F)cc1)C(=O)c1cn2cc(F)cnc2n1)[C@@H](C)OC [Compound 74]", "pKi": "> 6.60"}

Let us move to another entry and its pKi.
Provide one value: measured pKi of CN[C@@H](C)C(=O)N[C@H](C(=O)N1CCC[C@H]1CN(CCc1ccc(F)cc1)C(=O)c1cn(C)cn1)C(C)(C)C [Compound 40]
> 6.60

* * *

Would you kindly list Ki for each of these compounds?
molecular target: XIAP (Homo sapiens)

{"SMILES REPRESENTATION": "CN[C@@H](C)C(=O)N[C@H](C(=O)N1CCC[C@H]1CN(CCc1ccc(F)cc1)C(=O)C(=O)Nc1ccc(OC)cc1)C(C)(C)C", "Ki": "< 250 nM"}
{"SMILES REPRESENTATION": "CN[C@@H](C)C(=O)N[C@H](C(=O)N1C[C@@H](Oc2ccc(F)cc2)C[C@H]1CN(CCc1ccc(F)cc1)C(=O)c1cn(C)cn1)[C@@H](C)OC", "Ki": "< 250 nM"}

Provide one value: measured Ki of CN[C@@H](C)C(=O)N[C@H](C(=O)N1CCC[C@H]1CN(CCc1ccccc1)C(=O)c1cn2cccnc2n1)C(C)(C)C
< 250 nM

* * *

target: cIAP2 (Homo sapiens)
Sequence (Q13489 236-349): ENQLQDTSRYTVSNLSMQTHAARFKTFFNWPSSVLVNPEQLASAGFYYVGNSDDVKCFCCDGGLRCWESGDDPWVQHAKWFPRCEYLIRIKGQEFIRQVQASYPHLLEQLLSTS
Would you kindly list Ki for each of these compounds?

{"SMILES REPRESENTATION": "CN[C@@H](C)C(=O)N[C@H](C(=O)N1C[C@@H](Oc2ccc(OC)cc2)C[C@H]1CN(CCc1ccc(F)cc1)C(=O)c1cn(C)cn1)C(C)(C)C", "Ki": "< 25 nM"}
{"SMILES REPRESENTATION": "CN[C@@H](C)C(=O)N[C@H](C(=O)N1C[C@@H](NC(=O)c2ccccc2)C[C@H]1CN(CCc1ccc(F)cc1)C(=O)c1cn(C)cn1)C(C)(C)C", "Ki": "< 25 nM"}

I have 7 compounds here; please give me Ki for each one.
1. CN[C@@H](C)C(=O)N[C@H](C(=O)N1CCC[C@H]1CN(CCc1ccc(F)cc1)C(=O)c1cn(-c2ccc(F)cc2)cn1)C1CCCCC1
2. CN[C@@H](C)C(=O)N[C@H](C(=O)N1CCC[C@H]1CN(CCc1ccc(F)cc1)C(=O)c1cn2cc(F)cnc2n1)C(C)(C)C
3. CCN[C@@H](C)C(=O)N[C@H](C(=O)N1CCC[C@H]1CN(CCc1ccccc1)C(=O)c1cn2cccnc2n1)C1CCCCC1
4. CN[C@@H](C)C(=O)N[C@H](C(=O)N1CCC[C@H]1CN(CCc1ccc(F)cc1)C(=O)c1cn(-c2ccccc2)nn1)C(C)(C)C
5. CN[C@@H](C)C(=O)N[C@H](C(=O)N1CCC[C@H]1CN(CCc1ccc(F)cc1)C(=O)c1cncn1C)C(C)(C)C
6. CCO[C@H](C)[C@H](NC(=O)[C@H](C)NC)C(=O)N1CCC[C@H]1CN(CCc1ccc(F)cc1)C(=O)c1cn(-c2ccc(F)cc2)cn1
7. CCO[C@H](C)[C@H](NC(=O)[C@H](C)NC)C(=O)N1CCC[C@H]1CN(CCc1ccc(F)cc1)C(=O)c1cn2c(n1)CCC2

1: < 25 nM; 2: < 25 nM; 3: < 250 nM; 4: < 25 nM; 5: < 250 nM; 6: < 25 nM; 7: < 25 nM

I have 4 compounds here; please give me Ki for each one.
1. CN[C@@H](C)C(=O)N[C@H](C(=O)N1CCC[C@H]1CN(CCc1ccc(F)cc1)C(=O)c1cn2ccccc2n1)[C@@H](C)OC
2. CN[C@@H](C)C(=O)N[C@H](C(=O)N1C[C@@H](NC(=O)Cc2ccccc2)C[C@H]1CN(CCc1ccc(F)cc1)C(=O)c1cn2cccnc2n1)C(C)(C)C
3. CCN[C@@H](C)C(=O)N[C@H](C(=O)N1CCC[C@H]1CN(CCc1ccccc1)C(=O)c1cn2cccnc2n1)C(C)(C)C
4. CN[C@@H](C)C(=O)N[C@H](C(=O)N1C[C@@H](NC(=O)c2ccccc2)C[C@H]1CN(CCc1ccc(F)cc1)C(=O)c1cn2c(n1)CCC2)C(C)(C)C

["< 25 nM", "< 25 nM", "< 250 nM", "< 25 nM"]
